Target: ZAP70 (Homo sapiens, UniProt P43403)
Sequence (P43403 1-619): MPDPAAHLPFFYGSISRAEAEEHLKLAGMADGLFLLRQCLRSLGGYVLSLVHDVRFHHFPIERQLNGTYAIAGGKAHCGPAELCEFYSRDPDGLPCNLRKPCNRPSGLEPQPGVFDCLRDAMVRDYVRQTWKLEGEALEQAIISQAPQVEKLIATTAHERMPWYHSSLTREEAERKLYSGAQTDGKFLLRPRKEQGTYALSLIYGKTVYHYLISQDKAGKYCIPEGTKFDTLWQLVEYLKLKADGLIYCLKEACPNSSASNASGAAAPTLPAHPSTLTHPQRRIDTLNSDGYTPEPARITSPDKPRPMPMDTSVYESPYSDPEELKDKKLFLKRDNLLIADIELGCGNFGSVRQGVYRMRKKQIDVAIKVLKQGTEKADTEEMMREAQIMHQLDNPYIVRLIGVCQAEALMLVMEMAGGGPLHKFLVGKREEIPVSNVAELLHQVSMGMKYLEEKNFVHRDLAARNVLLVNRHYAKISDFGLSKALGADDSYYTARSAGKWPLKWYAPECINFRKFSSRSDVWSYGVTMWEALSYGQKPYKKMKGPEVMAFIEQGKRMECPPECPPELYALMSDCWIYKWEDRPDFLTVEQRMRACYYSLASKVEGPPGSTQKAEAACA
Assay: Kinase profiling (radiometric filter-binding)
Format: biochemical
Conditions: ZAP70, 1 µM inhibitor; read-out: Residual activity, %
Procedure: Kinase selectivity profiling was performed using the commercial service provided by the MRC PPU International Centre for Kinase Profiling (Dundee, UK) using a radiometric filter-binding assay. Kinases used for analysis were of human origin. The ATP concentration applied for inhibition measurements was at or below the ATP KM value of the particular PK. […] Residual activities were expressed as the percentage of retained activity compared to the control without inhibitor.
Square brackets hold non-standard residues; d marks the D form. Peptide text beside a SMILES is read from it. * marks the point of attachment. X3 = O=C(CCCCCNCc1nc2c(sc3cc(Br)cnc32)c(=O)[nH]1)*
# if measured remaining activity at 1 µM < 80%: Met  # else: Not met

{"COMPOUND": "N=C(N)NCCC[C@@H](NC(=O)CNC(=O)[C@@H](CCCNC(=N)N)NC(=O)[C@@H](CCCNC(=N)N)NC(=O)CCCCCCCNCc1nc2c(sc3cc(Br)cnc32)c(=O)[nH]1)C(=O)N[C@H](CCCCN)C(N)=O [Compound 1, BPTP-Aoc-(D-Arg)2-Gly-D-Arg-D-Lys-NH2]", "CLASS": "Not met"}

# TODO verify remaining activity at 1 µM < 80% strictly for this compound: N=C(N)NCCC[C@@H](NC(=O)CCCCCNCc1nc2c(sc3cc(Br)cnc32)c(=O)[nH]1)C(=O)N[C@H](CCCNC(=N)N)C(=O)N[C@H](CCCNC(=N)N)C(=O)N[C@H](CCCNC(=N)N)C(=O)N[C@H](CCCNC(=N)N)C(=O)N[C@H](CCCNC(=N)N)C(=O)N[C@H](CCCCN)C(N)=O [ARC-3126, BPTP-Ahx-(D-Arg)6-D-Lys-NH2] (X3-[dR][dR][dR][dR][dR][dR][dK]-NH2)
Not met

Bench note: check whether N=C(N)NCCC[C@@H](NC(=O)CNC(=O)[C@@H](CCCNC(=N)N)NC(=O)[C@@H](CCCNC(=N)N)NC(=O)Cn1cc(CNCc2nc3c(sc4ccc(Br)cc43)c(=O)[nH]2)nn1)C(=O)N[C@H](CCCCN)C(N)=O [Compound 3, BBTP-Amt-(D-Arg)2-Gly-D-Arg-D-Lys-NH2] shows remaining activity at 1 µM below 80%
Met

Input N=C(N)NCCC[C@@H](NC(=O)CNC(=O)[C@@H](CCCNC(=N)N)NC(=O)[C@@H](CCCNC(=N)N)NC(=O)CCCCCCCNCc1nc2c(sc3ccc(Br)cc32)c(=O)[nH]1)C(=O)N[C@H](CCCCN)C(N)=O [Compound 2, BBTP-Aoc-(D-Arg)2-Gly-D-Arg-D-Lys-NH2] ; condition: remaining activity at 1 µM strictly below 80%. Does it hold?
Not met

Say whether its remaining activity at 1 µM is strictly beneath 80%. Entry: N=C(N)NCCC[C@@H](NC(=O)CCCCCNC(=O)Cn1cnc2c(I)c(I)c(I)c(I)c21)C(=O)N[C@H](CCCNC(=N)N)C(=O)N[C@H](CCCNC(=N)N)C(=O)N[C@H](CCCNC(=N)N)C(=O)N[C@H](CCCNC(=N)N)C(=O)N[C@H](CCCNC(=N)N)C(=O)N[C@H](CCCCN)C(N)=O [ARC-3125, TIBI-CH2-C(=O)-Ahx-(D-Arg)6-D-Lys-NH2]
Not met

====

Recorded remaining activity at 1 µM by entry
target: MLK1 (Homo sapiens); assay: Kinase profiling (radiometric filter-binding); format: biochemical; settings: MLK1, 1 µM inhibitor; read-out: Residual activity, %
Sequence (P80192 whole entry): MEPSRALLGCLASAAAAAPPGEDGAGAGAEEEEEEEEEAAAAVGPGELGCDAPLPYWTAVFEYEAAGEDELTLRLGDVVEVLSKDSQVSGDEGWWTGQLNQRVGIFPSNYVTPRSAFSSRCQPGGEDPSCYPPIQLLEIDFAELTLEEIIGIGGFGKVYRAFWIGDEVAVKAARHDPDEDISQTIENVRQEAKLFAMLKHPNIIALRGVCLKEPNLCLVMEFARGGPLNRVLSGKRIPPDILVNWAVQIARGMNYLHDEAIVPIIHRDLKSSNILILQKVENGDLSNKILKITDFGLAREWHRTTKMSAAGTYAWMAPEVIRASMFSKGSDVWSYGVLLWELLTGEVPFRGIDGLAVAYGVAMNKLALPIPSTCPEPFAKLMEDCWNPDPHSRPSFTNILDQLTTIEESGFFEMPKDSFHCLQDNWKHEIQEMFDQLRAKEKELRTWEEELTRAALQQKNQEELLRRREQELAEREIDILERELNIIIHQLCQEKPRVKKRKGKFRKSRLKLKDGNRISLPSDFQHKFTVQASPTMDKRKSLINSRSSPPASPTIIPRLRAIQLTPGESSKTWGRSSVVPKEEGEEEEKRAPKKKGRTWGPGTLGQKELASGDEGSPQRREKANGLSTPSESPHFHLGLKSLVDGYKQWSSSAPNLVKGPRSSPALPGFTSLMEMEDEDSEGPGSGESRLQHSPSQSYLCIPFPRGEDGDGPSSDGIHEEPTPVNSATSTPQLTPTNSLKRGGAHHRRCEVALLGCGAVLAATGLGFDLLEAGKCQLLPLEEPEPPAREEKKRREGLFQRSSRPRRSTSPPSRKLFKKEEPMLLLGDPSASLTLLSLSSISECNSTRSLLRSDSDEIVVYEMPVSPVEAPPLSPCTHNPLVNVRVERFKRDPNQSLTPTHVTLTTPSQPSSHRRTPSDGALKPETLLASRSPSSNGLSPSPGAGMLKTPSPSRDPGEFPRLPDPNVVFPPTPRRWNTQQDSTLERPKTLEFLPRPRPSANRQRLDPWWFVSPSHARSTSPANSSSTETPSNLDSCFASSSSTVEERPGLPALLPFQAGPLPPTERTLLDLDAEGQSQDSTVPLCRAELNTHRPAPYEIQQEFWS
Output spec: scalar in %, unitless text.

{"CHEM SMILES": "N=C(N)NCCC[C@@H](NC(=O)CNC(=O)[C@@H](CCCNC(=N)N)NC(=O)[C@@H](CCCNC(=N)N)NC(=O)CCCCCCCNCc1nc2c(sc3ccc(Br)cc32)c(=O)[nH]1)C(=O)N[C@H](CCCCN)C(N)=O", "ASSAYED SYSTEM": "MLK1 (Homo sapiens)", "ENDPOINT RESULT": 98}

Quote remaining activity at 1 µM with test system MLK1 (Homo sapiens) for N=C(N)NCCC[C@@H](NC(=O)CNC(=O)[C@@H](CCCNC(=N)N)NC(=O)[C@@H](CCCNC(=N)N)NC(=O)Cn1cc(CNCc2nc3c(sc4ccc(Br)cc43)c(=O)[nH]2)nn1)C(=O)N[C@H](CCCCN)C(N)=O
101

Report value only: remaining activity at 1 µM, MLK1 (Homo sapiens), N=C(N)NCCC[C@@H](NC(=O)CNC(=O)[C@@H](CCCNC(=N)N)NC(=O)[C@@H](CCCNC(=N)N)NC(=O)CCCCCCCNCc1nc2c(sc3cc(Br)cnc32)c(=O)[nH]1)C(=O)N[C@H](CCCCN)C(N)=O
112

====

biological target: PKA (Homo sapiens); test: Kinase profiling (radiometric filter-binding); format: biochemical; conditions: 1 µM inhibitor, read-out: Residual activity, %
Square brackets hold non-standard residues; d marks the D form. Peptide text beside a SMILES is read from it. * marks the point of attachment. X3 = O=C(CCCCCNCc1nc2c(sc3cc(Br)cnc32)c(=O)[nH]1)*
METRIC NAME: remaining activity at 1 µM (%)
Give your result in % as a bare value.

# count of solved cases: 3
{"COMPOUND": "N=C(N)NCCC[C@@H](NC(=O)CNC(=O)[C@@H](CCCNC(=N)N)NC(=O)[C@@H](CCCNC(=N)N)NC(=O)Cn1cc(CNCc2nc3c(sc4ccc(Br)cc43)c(=O)[nH]2)nn1)C(=O)N[C@H](CCCCN)C(N)=O", "METRIC NAME": "remaining activity at 1 µM", "ENDPOINT RESULT": 82}
{"COMPOUND": "N=C(N)NCCC[C@@H](NC(=O)CNC(=O)[C@@H](CCCNC(=N)N)NC(=O)[C@@H](CCCNC(=N)N)NC(=O)CCCCCCCNCc1nc2c(sc3ccc(Br)cc32)c(=O)[nH]1)C(=O)N[C@H](CCCCN)C(N)=O", "METRIC NAME": "remaining activity at 1 µM", "ENDPOINT RESULT": 85}
{"COMPOUND": "N=C(N)NCCC[C@@H](NC(=O)CCCCCNC(=O)Cn1cnc2c(I)c(I)c(I)c(I)c21)C(=O)N[C@H](CCCNC(=N)N)C(=O)N[C@H](CCCNC(=N)N)C(=O)N[C@H](CCCNC(=N)N)C(=O)N[C@H](CCCNC(=N)N)C(=O)N[C@H](CCCNC(=N)N)C(=O)N[C@H](CCCCN)C(N)=O", "METRIC NAME": "remaining activity at 1 µM", "ENDPOINT RESULT": 7}

Determine reported remaining activity at 1 µM for N=C(N)NCCC[C@@H](NC(=O)CNC(=O)[C@@H](CCCNC(=N)N)NC(=O)[C@@H](CCCNC(=N)N)NC(=O)CCCCCCCNCc1nc2c(sc3cc(Br)cnc32)c(=O)[nH]1)C(=O)N[C@H](CCCCN)C(N)=O ; test system: PKA (Homo sapiens).
100

# return remaining activity at 1 µM of N=C(N)NCCC[C@@H](NC(=O)CCCCCNCc1nc2c(sc3cc(Br)cnc32)c(=O)[nH]1)C(=O)N[C@H](CCCNC(=N)N)C(=O)N[C@H](CCCNC(=N)N)C(=O)N[C@H](CCCNC(=N)N)C(=O)N[C@H](CCCNC(=N)N)C(=O)N[C@H](CCCNC(=N)N)C(=O)N[C@H](CCCCN)C(N)=O [ARC-3126, BPTP-Ahx-(D-Arg)6-D-Lys-NH2] (X3-[dR][dR][dR][dR][dR][dR][dK]-NH2) (system: PKA (Homo sapiens))
97
